Taken from patent US20240376093A1.

- EXPERIMENT_DESCRIPTION: Pharmacokinetics of the compound in Balb/c mice
- Assay type: in vivo
- TEST_SETTINGS: mouse, plasma; PO (10 mg/kg), male Balb/c mice, fasted; read-out: F (bioavailability)
REPORTED_ENDPOINT: bioavailability (%)
Give your result in % as a bare value.

Using known records, supply bioavailability for [2H]C([2H])([2H])CC(=O)c1cnc(NC(=O)C2CC2)cc1Nc1cccc(-c2cnc(N=S(C)(C)=O)cn2)c1OC [Compound 1] 51.4

---

- EXPERIMENT_DESCRIPTION: Pharmacokinetics of the compound in Balb/c mice
- Format: in vivo
- TEST_SETTINGS: mouse, plasma; PO (10 mg/kg), male Balb/c mice, fasted; read-out: Tmax (time to peak concentration)
REPORTED_ENDPOINT: Tmax (min)
Number only, in min; omit the unit.

// fetch Tmax given entry [2H]C([2H])([2H])CC(=O)c1cnc(NC(=O)C2CC2)cc1Nc1cccc(-c2cnc(N=S(C)(C)=O)cn2)c1OC [Compound 1] 45

---

IC50 values for the compounds below.
- ASSAYED_SYSTEM: TYK2 protein (His-TVMV-TYK2 JH2 (575-869)) (Homo sapiens (Human))
- EXPERIMENT_DESCRIPTION: Tyk2 JH2 enzymatic activity assay (HTRF, fluorescein-labeled kinase tracer)
- Type: binding
- TEST_SETTINGS: 90 minutes at room temperature
Numbers only; they are read as nM.

Here are 3 compounds together with their reported answers.
- COMPOUND: "[2H]C([2H])([2H])CC(=O)c1cnc(NC(=O)C2CC2)cc1Nc1cccc(-c2cnc(N=S(=O)(CC)CC)cn2)c1OC"
  REPORTED_ENDPOINT: "IC50"
  ENDPOINT_VALUE: 0.09
- COMPOUND: "[2H]C([2H])([2H])CC(=O)c1cnc(NC(=O)C2CC3CCC2C3)cc1Nc1cccc(-c2cnc(N=S(C)(C)=O)cn2)c1OC (stereo not drawn)"
  REPORTED_ENDPOINT: "IC50"
  ENDPOINT_VALUE: 0.3
- COMPOUND: "[2H]C([2H])([2H])CC(=O)c1cnc(NC(=O)c2cn[nH]c2)cc1Nc1cccc(-c2cnc(N=S(C)(C)=O)cn2)c1OC"
  REPORTED_ENDPOINT: "IC50"
  ENDPOINT_VALUE: 0.17

Entry `COc1c(Nc2cc(NC(=O)C3CC3)ncc2C(=O)C2CC2)cccc1-c1cnc(N=S(C)(C)=O)cn1` needs its IC50 filled in; supply it. 0.12

Write down IC50 measured for item `[2H]C([2H])([2H])CC(=O)c1cnc(NC(=O)C2CC2)cc1Nc1cc(C)cc(-c2cnc(N=S(C)(C)=O)cn2)c1OC` 0.13

Respond only with IC50 recorded for `[2H]C([2H])([2H])CC(=O)c1cnc(NC(=O)C2CC2)cc1Nc1cccc(-c2cnc(N=S(C)(C)=O)cn2)c1OC` 0.07

---

- ASSAYED_SYSTEM: TYK2 protein (His-TVMV-TYK2 JH2 (575-869)) (Homo sapiens (Human), UniProt P29597)
- Sequence (P29597 575-869, species assumed): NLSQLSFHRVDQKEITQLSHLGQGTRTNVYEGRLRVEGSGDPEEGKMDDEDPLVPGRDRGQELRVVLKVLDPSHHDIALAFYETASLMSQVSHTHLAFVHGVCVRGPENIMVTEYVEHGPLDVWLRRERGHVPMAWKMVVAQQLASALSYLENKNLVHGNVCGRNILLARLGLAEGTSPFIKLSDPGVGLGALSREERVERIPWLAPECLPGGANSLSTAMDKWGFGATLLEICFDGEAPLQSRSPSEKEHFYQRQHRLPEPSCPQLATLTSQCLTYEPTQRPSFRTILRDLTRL
- EXPERIMENT_DESCRIPTION: Tyk2 JH2 enzymatic activity assay (HTRF, fluorescein-labeled kinase tracer)
- Type: binding
- TEST_SETTINGS: 90 minutes at room temperature
So basically, the class depends on measured IC50, and the ranges are range A = under 0.07 nM, range B = from 0.07 nM up to 0.2 nM, range C = 0.2 nM and over

- COMPOUND: "[2H]C([2H])([2H])NC(=O)c1cnc(NC(=O)C2CC2)cc1Nc1cccc(-c2cnc(N=S(C)(C)=O)cn2)c1OC [Compound 3]"
  CLASSIFICATION: "range A"
- COMPOUND: "[2H]C([2H])([2H])NC(=O)c1nnc(NC(=O)C2CC2)cc1Nc1cccc(-c2cnc(N=S(C)(C)=O)cn2)c1OC [Compound 2]"
  CLASSIFICATION: "range A"

Textbook exercise: identify the category of the compound given here, [2H]C([2H])([2H])CC(=O)c1cnc(Nc2ccccn2)cc1Nc1cccc(-c2cnc(N=S(C)(C)=O)cn2)c1OC [Compound 10] , according to its measured value. range A

Dear colleague, I would appreciate it if you could identify the bin for [2H]C([2H])([2H])CC(=O)c1cnc(Nc2cncc(C)n2)cc1Nc1cccc(-c2cnc(N=S(C)(C)=O)cn2)c1OC [Compound 13] and reply at your convenience. range B

Hi, small favor: classify [2H]C([2H])([2H])CC(=O)c1cnc(NC(=O)N2CCC2)cc1Nc1cccc(-c2cnc(N=S(C)(C)=O)cn2)c1OC [Compound 20] by its IC50 when you get a moment. range B
